Attribution: paper PMC5540273

System: FGFR2;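 also: KINOMEscan kinase panel screen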
Settings: concentration: 1 μM, replicates: in singlicate; n = 1
assay metric: %Inh (%)
Hi! Could you send only the number? It should be in %, unit omitted.

CN1CCN(CCCNc2nccc(-c3c(-c4ccc(F)cc4)nn4cc(C(F)(F)F)ccc34)n2)CC1 :: 0
Nc1ncnc2c1nc(-c1ccccc1)n2-c1ccccc1 :: 20
Clc1ccc(-c2nn3ncccc3c2-c2ccnc(Nc3ccc4c(c3)OCCO4)n2)cc1 :: 0
Cl.Cl.NCC(NC(=O)c1cc(-c2ccccc2)c(-c2ccnc3[nH]ccc23)s1)c1ccccc1 (stereo not drawn) :: 14
O=C(Nc1cccc(-c2nn3ccccc3c2-c2ccnc(Nc3cccc(F)c3)n2)c1)c1c(F)ccc(F)c1Cl :: 0

# return recorded %Inh for entry Nc1ncc(-c2cccnc2)c2scc(-c3ccc4c(c3)CCN4C(=O)Cc3ccccc3)c12
10

# return recorded %Inh for entry COc1ccc(-c2coc3ccc(-c4nnc(SCc5ccc(OC)c(C(F)(F)F)c5)o4)cc23)cc1
17

# return recorded %Inh for entry CCCCc1nn2ncccc2c1-c1ccnc(Nc2ccc(N3CCN(C)CC3)cc2)n1
96.9

# return recorded %Inh for entry O=c1[nH]cc(-c2ccc(N3CCOCC3)cc2)c2sc(-c3cn[nH]c3)cc12
0

# return recorded %Inh for entry CC(=O)Nc1nc2cnc(Nc3cc(NC(=O)c4cccc(C5(C#N)CC5)c4Cl)ccc3C)nc2s1
15

# return recorded %Inh for entry O=C(Nc1n[nH]c2cc(-c3ccoc3)ccc12)C1CC1
0

# return recorded %Inh for entry O=C(Nc1cccc(-c2nn3ncccc3c2-c2ccnc(Nc3ccccc3)n2)c1)c1c(F)cccc1F
7
